- subject of test: P2X7 receptor (Homo sapiens, UniProt Q99572)
- Sequence (Q99572 1-595): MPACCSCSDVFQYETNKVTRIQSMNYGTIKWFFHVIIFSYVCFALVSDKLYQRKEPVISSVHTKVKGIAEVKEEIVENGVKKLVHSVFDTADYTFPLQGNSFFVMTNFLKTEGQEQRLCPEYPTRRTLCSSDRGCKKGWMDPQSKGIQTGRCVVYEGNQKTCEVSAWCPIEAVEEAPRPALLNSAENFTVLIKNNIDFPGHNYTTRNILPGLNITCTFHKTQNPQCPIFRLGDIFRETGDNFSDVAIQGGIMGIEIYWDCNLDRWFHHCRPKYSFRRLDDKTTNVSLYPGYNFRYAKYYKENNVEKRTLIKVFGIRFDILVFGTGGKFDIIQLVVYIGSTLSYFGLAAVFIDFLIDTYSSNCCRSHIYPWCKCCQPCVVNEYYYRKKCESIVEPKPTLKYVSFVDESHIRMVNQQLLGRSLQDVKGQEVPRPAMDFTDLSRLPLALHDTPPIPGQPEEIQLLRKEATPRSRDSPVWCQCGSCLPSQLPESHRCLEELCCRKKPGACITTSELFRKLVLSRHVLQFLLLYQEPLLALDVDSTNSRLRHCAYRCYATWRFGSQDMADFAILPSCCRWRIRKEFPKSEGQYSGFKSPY
- test details: Screen Quest Fluo-8 No Wash Calcium Assay (Bz-ATP evoked Ca2+ influx, FLIPR)
- Assay type: cell-based
- Parameters: hP2X7 (IC50; nM); other: hP2X7; HEK-293 cells stably transfected with P2X7 receptor, Bz-ATP at EC80, Fluo-8 NW; potency
- particulars: hP2X7; HEK-293 cells stably transfected with P2X7 receptor, Bz-ATP at EC80, Fluo-8 NW; potency ranges A-D
assay endpoint: IC50

The following compounds have reported results that may help.
- compound: "Cc1noc(C)c1Cc1noc(=O)n1Cc1ccc(F)cc1"
  subject of test: "P2X7 receptor (Homo sapiens, UniProt Q99572)"
  IC50: "1000 to 10000 nM"
- compound: "CC1CC(F)(F)CCN1Cc1noc(=O)n1Cc1ccc(F)cc1 (centres unmarked)"
  subject of test: "P2X7 receptor (Homo sapiens, UniProt Q99572)"
  IC50: "1000 to 10000 nM"

Look up and report measured IC50 for this entry: "O=c1onc(CC2CCC(F)(F)CC2)n1Cc1ccno1"
> 10000 nM

Look up and report measured IC50 for this entry: "O=c1onc(Cc2ccccn2)n1CC1CCCCC1"
> 10000 nM

Look up and report measured IC50 for this entry: O=c1onc(Cc2c(F)cccc2Cl)n1CC1CCC(F)(F)C1 (single isomer, unassigned) [Example 148]
< 200 nM
